test.target: purified CD26 (Homo sapiens)
Construct: made in house
Sequence (P27487 whole entry): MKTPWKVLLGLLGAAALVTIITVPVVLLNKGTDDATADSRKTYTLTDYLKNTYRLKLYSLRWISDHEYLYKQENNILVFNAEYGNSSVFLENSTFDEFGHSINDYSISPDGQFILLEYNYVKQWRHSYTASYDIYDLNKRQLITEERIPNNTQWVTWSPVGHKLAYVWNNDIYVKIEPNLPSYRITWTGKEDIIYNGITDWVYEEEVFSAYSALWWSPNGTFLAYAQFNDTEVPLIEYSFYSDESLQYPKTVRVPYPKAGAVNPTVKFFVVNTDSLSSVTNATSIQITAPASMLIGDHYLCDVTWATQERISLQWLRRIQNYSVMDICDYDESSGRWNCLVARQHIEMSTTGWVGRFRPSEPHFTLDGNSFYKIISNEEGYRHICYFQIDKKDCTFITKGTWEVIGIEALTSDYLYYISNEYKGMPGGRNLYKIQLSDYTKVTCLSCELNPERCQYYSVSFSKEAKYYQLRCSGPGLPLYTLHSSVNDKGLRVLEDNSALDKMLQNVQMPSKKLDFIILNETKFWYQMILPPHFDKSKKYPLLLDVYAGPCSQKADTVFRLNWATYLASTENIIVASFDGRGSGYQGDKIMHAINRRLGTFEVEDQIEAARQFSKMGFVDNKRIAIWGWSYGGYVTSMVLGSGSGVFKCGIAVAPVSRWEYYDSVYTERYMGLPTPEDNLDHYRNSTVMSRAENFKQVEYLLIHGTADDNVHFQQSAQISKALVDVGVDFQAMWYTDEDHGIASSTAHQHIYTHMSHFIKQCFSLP
run.description: Conversion of peptide prodrugs to parent compound by purified CD26 (HPLC)
Format: biochemical
study.conditions: Table 1; purified CD26 1.5 mUnits; 24 h
measure.name: Conversion % to parent compound by purified CD26, 24 h (%)
Kindly answer with a numeric value in %, unit omitted.

CNC(C(=O)N1CCCC1C(=O)NC(C(=O)NCCCn1c(=O)c(C)cn(C2OC(CO[Si](C)(C)C(C)(C)C)C3(OS(=O)(=O)C=C3N)C2O[Si](C)(C)C(C)(C)C)c1=O)C(C)C)C(C)C (stereo not drawn) [CAM-407, Me-NH-Val-Pro-Val-NHP-TSAO] yielded Conversion % to parent compound by purified CD26, 24 h of 0

Record Cc1cn(C2OC(CO[Si](C)(C)C(C)(C)C)C3(OS(=O)(=O)C=C3N)C2O[Si](C)(C)C(C)(C)C)c(=O)n(CCCNC(=O)[C@@H]2CCCN2C(=O)CN)c1=O (stereo partly drawn) [CAM-458, H-Gly-Pro-NAP-TSAO] , field Conversion % to parent compound by purified CD26, 24 h: 58

###

run.description: Solubility in Milli-Q water
Type: physicochemical
study.conditions: 1 mg/ml in Milli-Q water; 2 × 10 sec sonication, 4 days shaking, room temperature; centrifugation, U.V. spectrum
Could you please report measured Spectrum (~265 nm) for the items listed next?
Just the number, please.

For Cc1cn(C2OC(CO[Si](C)(C)C(C)(C)C)C3(OS(=O)(=O)C=C3N)C2O[Si](C)(C)C(C)(C)C)c(=O)n(CCCNC(=O)CNC(=O)[C@@H](N)C(C)C)c1=O (stereo partly shown) the molecule record lists Spectrum (~265 nm) as 1.886

Reported Spectrum (~265 nm) ( Cc1cn(C2OC(CO[Si](C)(C)C(C)(C)C)C3(OS(=O)(=O)C=C3N)C2O[Si](C)(C)C(C)(C)C)c(=O)n(CCCNC(=O)[C@H](C)NC(=O)[C@@H](N)C(C)C)c1=O (stereo partly shown) ) = 0.650

For this molecule ( Cc1cn(C2OC(CO[Si](C)(C)C(C)(C)C)C3(OS(=O)(=O)C=C3N)C2O[Si](C)(C)C(C)(C)C)c(=O)n(CCCNC(=O)[C@H]2CCCN2C(=O)[C@@H](N)C(C)C)c1=O (stereo partly shown) ), measured Spectrum (~265 nm) is 3.220

Sure, the documented Spectrum (~265 nm) for Cc1cn([C@@H]2O[C@H](CO[Si](C)(C)C(C)(C)C)[C@@]3(OS(=O)(=O)C=C3N)[C@H]2O[Si](C)(C)C(C)(C)C)c(=O)n(C)c1=O [m-3T-TSAO, 3-methyl-TSAO-T, reference compound] is 0.100

###

test.target: purified CD26 (Homo sapiens)
Construct: made in house
run.description: Conversion of peptide prodrugs to parent compound by purified CD26 (HPLC)
Assay type: biochemical
study.conditions: Table 1; purified CD26 1.5 mUnits; 4 h
For each entry below, report its Conversion % to parent compound by purified CD26, 4 h value.

Form field Conversion % to parent compound by purified CD26, 4 h, entry Cc1cn(C2OC(CO[Si](C)(C)C(C)(C)C)C3(OS(=O)(=O)C=C3N)C2O[Si](C)(C)C(C)(C)C)c(=O)n(CCCNC(=O)[C@@H]2CCCN2C(=O)[C@@H](N)CC(=O)O)c1=O (stereo partly drawn) [CAM-435, H-Asp-Pro-NAP-TSAO] : 7.9%

// Conversion % to parent compound by purified CD26, 4 h lookup, compound = Cc1cn(C2OC(CO[Si](C)(C)C(C)(C)C)C3(OS(=O)(=O)C=C3N)C2O[Si](C)(C)C(C)(C)C)c(=O)n(CCCNC(=O)[C@H](C)NC(=O)[C@@H](N)C(C)C)c1=O (stereo partly drawn) [CAM-424, H-Val-Ala-NAP-TSAO] , result: 6.5%

Reported Conversion % to parent compound by purified CD26, 4 h for Cc1cn(C2OC(CO[Si](C)(C)C(C)(C)C)C3(OS(=O)(=O)C=C3N)C2O[Si](C)(C)C(C)(C)C)c(=O)n(CCCNC(=O)C(CC(C)C)NC(=O)C(N)C(C)C)c1=O (stereo not drawn) [CAM-426, H-Val-Leu-NAP-TSAO] was 0%

Please fill in: Conversion % to parent compound by purified CD26, 4 h reported for Cc1cn(C2OC(CO[Si](C)(C)C(C)(C)C)C3(OS(=O)(=O)C=C3N)C2O[Si](C)(C)C(C)(C)C)c(=O)n(CCCNC(=O)[C@@H]2CCCN2C(=O)[C@@H](N)C(C)C)c1=O (stereo partly drawn) [CAM-405, H-Val-Pro-NAP-TSAO] = 62%

Item: Cc1cn(C2OC(CO[Si](C)(C)C(C)(C)C)C3(OS(=O)(=O)C=C3N)C2O[Si](C)(C)C(C)(C)C)c(=O)n(CCCNC(=O)[C@@H]2CCCN2C(=O)[C@@H](N)CCCCN)c1=O (stereo partly drawn) [CAM-437, H-Lys-Pro-NAP-TSAO] | Conversion % to parent compound by purified CD26, 4 h: 85%

Notebook: Cc1cn(C2OC(CO[Si](C)(C)C(C)(C)C)C3(OS(=O)(=O)C=C3N)C2O[Si](C)(C)C(C)(C)C)c(=O)n(CCCNC(=O)[C@H]2CCCN2C(=O)[C@@H](N)C(C)C)c1=O (stereo partly drawn) [CAM-430, H-Val-D-Pro-NAP-TSAO] , Conversion % to parent compound by purified CD26, 4 h read as ~1%

Form field Conversion % to parent compound by purified CD26, 4 h, entry Cc1cn(C2OC(CO[Si](C)(C)C(C)(C)C)C3(OS(=O)(=O)C=C3N)C2O[Si](C)(C)C(C)(C)C)c(=O)n(CCCNC(=O)C(NC(=O)C2CCCN2C(=O)C(N)C(C)C)C(C)C)c1=O (stereo not drawn) [CAM-431, H-Val-Pro-Val-NAP-TSAO] : 51%

The value of Conversion % to parent compound by purified CD26, 4 h measured for the compound Cc1cn(C2OC(CO[Si](C)(C)C(C)(C)C)C3(OS(=O)(=O)C=C3N)C2O[Si](C)(C)C(C)(C)C)c(=O)n(CCCNC(=O)[C@@H](NC(=O)OCc2ccccc2)C(C)C)c1=O (stereo partly shown) [CAM-404, Z-Val-NAP-TSAO] turned out to be 0%

Kindly note the recorded Conversion % to parent compound by purified CD26, 4 h for Cc1cn(C2OC(CO[Si](C)(C)C(C)(C)C)C3(OS(=O)(=O)C=C3N)C2O[Si](C)(C)C(C)(C)C)c(=O)n(CCCNC(=O)[C@@H]2CCCN2C(=O)CN)c1=O (stereo partly drawn) [CAM-458, H-Gly-Pro-NAP-TSAO] , which is 20%

The value of Conversion % to parent compound by purified CD26, 4 h measured for the compound Cc1cn(C2OC(CO[Si](C)(C)C(C)(C)C)C3(OS(=O)(=O)C=C3N)C2O[Si](C)(C)C(C)(C)C)c(=O)n(CCCNC(=O)[C@@H]2CCCN2C(=O)[C@@H](N)Cc2ccc(O)cc2)c1=O (stereo partly drawn) [CAM-456, H-Tyr-Pro-NAP-TSAO] turned out to be 66%

Data origin, for the record: patent US8236756B2
